Molecular target: T1, human CD123 on CHO cells (Homo sapiens, UniProt P26951)
T1 construct: expressed in transfected cells; host or cells: CHO cells
T1 sequence (P26951 19-378): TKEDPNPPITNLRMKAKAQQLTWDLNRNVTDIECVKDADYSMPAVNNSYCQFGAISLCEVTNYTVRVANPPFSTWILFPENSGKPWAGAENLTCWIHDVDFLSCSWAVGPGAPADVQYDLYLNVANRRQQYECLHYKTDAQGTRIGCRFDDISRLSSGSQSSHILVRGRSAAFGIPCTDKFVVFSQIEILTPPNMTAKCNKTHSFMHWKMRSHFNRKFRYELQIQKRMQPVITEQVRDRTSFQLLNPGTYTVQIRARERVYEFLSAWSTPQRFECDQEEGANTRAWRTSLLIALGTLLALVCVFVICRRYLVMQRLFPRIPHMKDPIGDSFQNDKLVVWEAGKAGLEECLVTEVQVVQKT
Assay: Flow cytometry binding of IgG antibodies to CD123 expressing CHO cells
Conditions: flow cytometry, 4-parameter logistic model
Max binding intensity (MFI): recorded values

# count of solved cases: 3
MOLECULE | Max binding intensity (MFI)
h32716-2-1 IgG: humanized 32716 anti-CD123 IgG, VH SEQ ID NO: 77, VL SEQ ID NO: 79 (antibody, V domains shown) VH: QVQLVQSGAEVKKPGSSVKVSCKASGYIFTNYGMNWVKQAPGQGLEWMGWINTYTGESTYSADFKGRFTFTLDESTSTAYMELSSLRSEDTAVYYCARSGGYDPMDYWGQGTLVTVSS VL: DIVMTQSPDSLAVSLGERATINCRASESVDNYGNTFMHWYQQKPGQPPKLLIYRASNLESGVPDRFSGSGSGTDFTLTISSLQAEDVAVYYCQQSNEDPPTFGQGTRLEIK | 930000 MFI
h32716-5-2 IgG: humanized 32716 anti-CD123 IgG, VH SEQ ID NO: 81, VL SEQ ID NO: 83 (antibody, V domains shown) VH: QVQLVQSGPELKKPGASVKVSCKASGYIFTNYGMNWVKQAPGQGLEWMGWINTYTGESTYSADFKGRFVFSLDTSVSTAYLQISSLKAEDTAVYYCARSGGYDPMDYWGQGTLVTVSS VL: DIQMTQSPSSLSASVGDRVTITCRASESVDNYGNTFMHWYQQKPGKAPKLLIYRASNLESGVPSRFSGSGSGTDFTFTISSLQPEDIATYYCQQSNEDPPTFGQGTKVEIK | 1100000 MFI
h32716-3-1 IgG: humanized 32716 anti-CD123 IgG, VH SEQ ID NO: 78, VL SEQ ID NO: 79 (antibody, V domains shown) VH: QVQLVQSGAEVKKPGSSVKVSCKASGYIFTNYGMNWVKQAPGQGFKWMGWINTYTGESTYSADFKGRFTFTLDESTSTAYMELSSLRSEDTAVYYCARSGGYDPMDYWGQGTLVTVSS VL: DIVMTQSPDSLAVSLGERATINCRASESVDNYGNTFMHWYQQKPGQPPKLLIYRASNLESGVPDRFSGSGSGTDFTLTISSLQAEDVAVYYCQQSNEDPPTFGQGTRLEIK | 940000 MFI

Record h32716-4-2 IgG: humanized 32716 anti-CD123 IgG, VH SEQ ID NO: 80, VL SEQ ID NO: 83 (antibody, V domains shown) VH: QVQLVQSGPELKKPGASVKVSCKASGYIFTNYGMNWVRQAPGQGLEWMGWINTYTGESTYSADFKGRFVFSLDTSVSTAYLQISSLKAEDTAVYYCARSGGYDPMDYWGQGTLVTVSS VL: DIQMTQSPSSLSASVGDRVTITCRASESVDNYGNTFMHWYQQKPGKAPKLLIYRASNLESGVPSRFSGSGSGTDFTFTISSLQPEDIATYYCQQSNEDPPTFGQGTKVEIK , field Max binding intensity (MFI): 980000 MFI

The recorded Max binding intensity (MFI) for entry h32716-1-1 IgG: humanized 32716 anti-CD123 IgG, VH SEQ ID NO: 76, VL SEQ ID NO: 79 (antibody, V domains shown) VH: QVQLVQSGAEVKKPGSSVKVSCKASGYIFTNYGMNWVRQAPGQGLEWMGWINTYTGESTYSADFKGRVTITADESTSTAYMELSSLRSEDTAVYYCARSGGYDPMDYWGQGTLVTVSS VL: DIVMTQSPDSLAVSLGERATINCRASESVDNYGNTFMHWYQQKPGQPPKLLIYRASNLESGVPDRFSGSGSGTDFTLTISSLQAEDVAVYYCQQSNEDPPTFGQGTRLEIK equals 950000 MFI

The measured values listed here are drawn from patent US20240076392A1.
